Where do the numbers come from? From patent US20210186970A1.

Each entry below lists one item and its recorded Selectivity value.
molecular target: Cav1.3 L-type Ca channels (Rattus norvegicus, UniProt P27732); construct: expressed in transfected cells; host or cells: HEK293; experiment: FLIPR Fluo-8 calcium assay, Cav1.3 channel inhibition in HEK293 cells; assay type: cell-based; settings: third library; ratio of IC50 Cav1.2 to Cav1.3
Sequence (P27732 whole entry): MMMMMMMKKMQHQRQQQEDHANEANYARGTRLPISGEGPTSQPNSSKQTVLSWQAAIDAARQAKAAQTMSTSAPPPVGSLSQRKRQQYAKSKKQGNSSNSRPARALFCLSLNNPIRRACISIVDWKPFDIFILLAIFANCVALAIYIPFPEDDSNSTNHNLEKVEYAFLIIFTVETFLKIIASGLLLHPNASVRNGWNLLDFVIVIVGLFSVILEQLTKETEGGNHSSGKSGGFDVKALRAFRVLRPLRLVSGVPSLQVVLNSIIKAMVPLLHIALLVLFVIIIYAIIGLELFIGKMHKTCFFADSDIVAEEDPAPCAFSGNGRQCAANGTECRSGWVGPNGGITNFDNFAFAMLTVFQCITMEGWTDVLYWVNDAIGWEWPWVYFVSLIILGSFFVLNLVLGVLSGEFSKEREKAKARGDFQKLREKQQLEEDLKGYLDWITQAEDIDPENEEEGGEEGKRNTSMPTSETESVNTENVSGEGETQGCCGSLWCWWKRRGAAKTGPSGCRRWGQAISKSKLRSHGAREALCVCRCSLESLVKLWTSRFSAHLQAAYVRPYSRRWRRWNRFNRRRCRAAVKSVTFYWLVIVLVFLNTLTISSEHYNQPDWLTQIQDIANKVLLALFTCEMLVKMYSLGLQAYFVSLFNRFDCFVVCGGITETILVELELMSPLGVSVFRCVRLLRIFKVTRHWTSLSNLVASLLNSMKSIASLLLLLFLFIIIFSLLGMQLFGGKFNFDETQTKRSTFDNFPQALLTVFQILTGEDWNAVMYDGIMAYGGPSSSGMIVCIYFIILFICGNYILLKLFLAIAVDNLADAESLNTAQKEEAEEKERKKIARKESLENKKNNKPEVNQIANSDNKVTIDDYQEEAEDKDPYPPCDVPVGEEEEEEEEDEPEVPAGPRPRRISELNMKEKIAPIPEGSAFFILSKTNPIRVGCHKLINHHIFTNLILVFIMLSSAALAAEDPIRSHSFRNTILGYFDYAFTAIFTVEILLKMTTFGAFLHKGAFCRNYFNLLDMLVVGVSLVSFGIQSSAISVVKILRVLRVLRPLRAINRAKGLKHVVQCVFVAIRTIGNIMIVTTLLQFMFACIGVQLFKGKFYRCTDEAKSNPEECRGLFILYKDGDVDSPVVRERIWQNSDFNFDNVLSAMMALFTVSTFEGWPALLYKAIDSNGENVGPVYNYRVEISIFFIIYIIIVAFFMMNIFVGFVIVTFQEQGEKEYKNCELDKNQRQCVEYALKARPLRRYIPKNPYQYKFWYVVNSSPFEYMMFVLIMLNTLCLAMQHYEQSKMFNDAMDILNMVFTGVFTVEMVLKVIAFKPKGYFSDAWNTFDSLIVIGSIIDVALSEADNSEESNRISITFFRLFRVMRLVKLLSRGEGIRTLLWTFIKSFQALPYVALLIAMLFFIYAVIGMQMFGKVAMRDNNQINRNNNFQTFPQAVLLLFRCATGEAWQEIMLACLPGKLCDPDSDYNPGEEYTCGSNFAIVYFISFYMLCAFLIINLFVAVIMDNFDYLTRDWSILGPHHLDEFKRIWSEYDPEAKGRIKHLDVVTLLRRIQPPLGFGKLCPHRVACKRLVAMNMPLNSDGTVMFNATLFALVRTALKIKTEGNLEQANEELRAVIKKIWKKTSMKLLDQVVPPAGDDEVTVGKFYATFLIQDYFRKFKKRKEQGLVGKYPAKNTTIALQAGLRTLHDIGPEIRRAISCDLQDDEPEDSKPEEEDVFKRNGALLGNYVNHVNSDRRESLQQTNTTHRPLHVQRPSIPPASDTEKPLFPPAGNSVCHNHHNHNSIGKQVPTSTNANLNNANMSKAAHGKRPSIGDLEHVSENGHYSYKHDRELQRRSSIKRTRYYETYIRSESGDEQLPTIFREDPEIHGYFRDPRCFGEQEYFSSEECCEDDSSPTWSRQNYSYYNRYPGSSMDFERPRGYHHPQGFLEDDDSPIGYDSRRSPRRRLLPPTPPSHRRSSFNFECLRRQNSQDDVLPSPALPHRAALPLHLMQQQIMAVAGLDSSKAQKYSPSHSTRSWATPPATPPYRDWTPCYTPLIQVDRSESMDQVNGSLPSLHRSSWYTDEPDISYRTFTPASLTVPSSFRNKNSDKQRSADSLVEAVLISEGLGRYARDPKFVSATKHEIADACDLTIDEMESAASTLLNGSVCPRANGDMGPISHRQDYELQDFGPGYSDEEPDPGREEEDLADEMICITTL
Sequence (P54284 whole entry partner): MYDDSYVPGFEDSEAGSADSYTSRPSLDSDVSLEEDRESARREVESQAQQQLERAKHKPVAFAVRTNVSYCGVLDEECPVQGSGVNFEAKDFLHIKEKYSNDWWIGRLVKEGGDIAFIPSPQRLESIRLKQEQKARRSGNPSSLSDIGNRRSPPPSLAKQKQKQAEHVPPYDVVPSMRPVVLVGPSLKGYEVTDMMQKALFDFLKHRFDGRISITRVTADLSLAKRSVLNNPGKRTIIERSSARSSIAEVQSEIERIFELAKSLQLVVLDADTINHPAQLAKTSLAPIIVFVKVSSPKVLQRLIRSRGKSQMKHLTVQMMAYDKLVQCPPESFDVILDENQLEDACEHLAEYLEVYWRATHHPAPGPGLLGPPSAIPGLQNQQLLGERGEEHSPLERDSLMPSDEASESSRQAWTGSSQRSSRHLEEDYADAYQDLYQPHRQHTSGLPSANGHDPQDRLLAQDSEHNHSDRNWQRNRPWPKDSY
Sequence (P54289 25-956 partner limits assumed): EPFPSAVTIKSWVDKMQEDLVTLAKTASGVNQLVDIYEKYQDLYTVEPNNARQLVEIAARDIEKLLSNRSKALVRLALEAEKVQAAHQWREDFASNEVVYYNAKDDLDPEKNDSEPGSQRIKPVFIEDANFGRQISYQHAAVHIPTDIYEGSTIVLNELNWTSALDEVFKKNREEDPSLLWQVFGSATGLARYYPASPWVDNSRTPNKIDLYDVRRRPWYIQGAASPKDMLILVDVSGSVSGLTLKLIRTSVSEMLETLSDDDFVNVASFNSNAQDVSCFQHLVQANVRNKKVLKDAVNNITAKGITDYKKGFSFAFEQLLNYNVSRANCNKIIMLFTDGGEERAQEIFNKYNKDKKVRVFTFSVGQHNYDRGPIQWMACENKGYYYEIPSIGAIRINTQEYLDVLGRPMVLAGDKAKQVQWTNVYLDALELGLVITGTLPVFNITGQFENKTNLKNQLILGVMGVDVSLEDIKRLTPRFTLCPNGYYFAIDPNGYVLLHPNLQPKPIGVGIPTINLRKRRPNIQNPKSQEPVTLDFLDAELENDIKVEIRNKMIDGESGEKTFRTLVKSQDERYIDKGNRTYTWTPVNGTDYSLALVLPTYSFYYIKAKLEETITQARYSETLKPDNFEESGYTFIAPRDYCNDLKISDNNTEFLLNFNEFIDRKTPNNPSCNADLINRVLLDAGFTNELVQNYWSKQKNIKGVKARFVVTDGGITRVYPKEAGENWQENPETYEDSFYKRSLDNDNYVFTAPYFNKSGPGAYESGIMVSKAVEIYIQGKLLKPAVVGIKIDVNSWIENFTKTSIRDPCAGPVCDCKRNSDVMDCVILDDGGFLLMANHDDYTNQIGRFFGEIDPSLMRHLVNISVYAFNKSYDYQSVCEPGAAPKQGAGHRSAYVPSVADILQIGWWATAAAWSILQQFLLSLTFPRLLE
Sequence (P54289 957-1103 partner limits assumed): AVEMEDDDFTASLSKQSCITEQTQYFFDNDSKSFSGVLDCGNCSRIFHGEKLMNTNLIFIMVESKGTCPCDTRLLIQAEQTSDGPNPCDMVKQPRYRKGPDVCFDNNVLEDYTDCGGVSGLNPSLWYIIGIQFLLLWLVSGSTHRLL
property: Selectivity

>>> print(df.to_string())
                                   compound  reported
0  O=C1CC(=O)N(C23CC4CC(CC(C4)C2)C3)C(=O)N1CCc1ccc(Cl)cc1       0.8
1  O=C1CC(=O)N(C2CCCCCC2)C(=O)N1CCc1cccc(Cl)c1      18.5
2  CCC(C)N1C(=O)CC(=O)N(CCc2cccc(Cl)c2)C1=O (stereo not drawn)      23.6
3  CC(Cc1ccccc1)N1C(=O)CC(=O)N(C2CCCC2)C1=O (racemic)      23.0
4  O=C1CC(=O)N(CC2CCCCC2)C(=O)N1CCc1cccc(C(F)(F)F)c1      22.1
5  Cc1cccc(CCN2C(=O)CC(=O)N(C3CCCCCC3)C2=O)c1       2.3
6  Cc1ccc(CCN2C(=O)CC(=O)N(C3CCCCCC3)C2=O)cc1      16.0
7  O=C1CC(=O)N(C2CCCC2)C(=O)N1CCc1cccc(C(F)(F)F)c1     305.4
8   O=C1CC(=O)N(C2CC2)C(=O)N1CCc1ccc(Cl)cc1       0.3

---

Each entry below lists one item and its recorded log10 of IC50 value.
biological target: Cav1.2 L-type Ca channels (Oryctolagus cuniculus, UniProt P15381); assay: FLIPR Fluo-8 calcium assay, Cav1.2 channel inhibition in HEK293 cells; conditions: IC50 (μM) Cav1.2, third library; FLIPR, HEK293; value (±SD)
property: log10 of IC50 (log10 of the value in µM)

In [3]: df
Out[3]:
                                    compound  reported
 0  O=C1CC(=O)N(CC2CCCCC2)C(=O)N1CCc1cccc(Cl)c1 [Compound 109]      1.65
 1  O=C1CC(=O)N(C2C3CC4CC(C3)CC2C4)C(=O)N1CCc1ccc(Cl)cc1 (centres unmarked) [Compound 116]      1.61
 2  O=C1CC(=O)N(C2CCCCCC2)C(=O)N1CCc1cccc(C(F)(F)F)c1 [Compound 90]      0.76
 3  O=C1CC(=O)N(C2CCCCCC2)C(=O)N1CCc1cccc(Cl)c1 [Compound 91]      1.66
 4  CCC(C)N1C(=O)CC(=O)N(CCc2cccc(C(F)(F)F)c2)C1=O (centres unmarked) [Compound 108]      1.56
 5  O=C1CC(=O)N([C@@H]2C[C@@H]3CC[C@H]2C3)C(=O)N1CCc1cccc(Cl)c1 (racemic) [Compound 9]      1.30
 6  O=C1CC(=O)N(C2CCC2)C(=O)N1CCc1ccc(Cl)cc1 [Compound 100]      0.69
 7  O=C1CC(=O)N(C2CCCC2)C(=O)N1CCc1cccc(C(F)(F)F)c1 [Compound 7]      2.51
 8  O=C1CC(=O)N(CC2CCCCC2)C(=O)N1CCc1cccc(C(F)(F)F)c1 [Compound 111]      1.31
 9  O=C1CC(=O)N(C2CC3CCC2C3)C(=O)N1CCc1ccc(Cl)cc1 (racemic) [Compound 10]      1.13
10  O=C1CC(=O)N([C@H]2C[C@@H]3CC[C@H]2C3)C(=O)N1CCc1cccc(Cl)c1 (racemic) [Compound 112]      0.80
11  O=C1CC(=O)N(C2C3CC4CC(C3)CC2C4)C(=O)N1CCc1cccc(Cl)c1 (centres unmarked) [Compound 117]      0.49
12  O=C1CC(=O)N(C2CCCCCC2)C(=O)N1CCc1ccc(Cl)cc1 [Compound 92]      1.52
13  O=C1CC(=O)N(C2CCCC2)C(=O)N1CCc1cccc(Cl)c1 [Compound 8]      3.24
14  Cc1cccc(CCN2C(=O)CC(=O)N(C3CCCC3)C2=O)c1 [Compound 97]      1.72
15  CC(Cc1ccccc1)N1C(=O)CC(=O)N(C2CCCC2)C1=O (racemic) [Compound 95]      1.20
16  O=C1CC(=O)N(C23CC4CC(CC(C4)C2)C3)C(=O)N1CCc1ccc(Cl)cc1 [Compound 114]      0.41

---

biological target: UniProt:P15381; test: FLIPR Fluo-8 calcium assay, Cav1.2 channel inhibition in HEK293 cells; conditions: IC50 (μM) Cav1.2, second library; FLIPR, HEK293; value (±SD)
IC50 strictly under 40 µM means Met; at 40 µM or over means Not met.

>>> df
                                   molecule  assigned_category
0  O=C1CC(=O)N(C2CCCCC2)C(=O)N1CCCc1ccccc1 [Compound 84]                Met
1  O=C1CC(=O)N(C2CCCCC2)C(=O)N1Cc1cccc([N+](=O)[O-])c1 [Compound 83]            Not met
2  Cc1cccc(CCN2C(=O)CC(=O)N(C3CCCCC3)C2=O)c1 [Compound 4]            Not met
3  O=C1CC(=O)N(C2CCc3ccccc32)C(=O)N1C1CCCCC1 (stereo not drawn) [Compound 85]                Met
4  N#Cc1cccc(CCN2C(=O)CC(=O)N(C3CCCCC3)C2=O)c1 [Compound 79]                Met
5  O=C(O)c1cccc(CCN2C(=O)CC(=O)N(C3CCCCC3)C2=O)c1 [Compound 89]            Not met

---

Each entry below lists one item and its recorded IC50 value.
biological target: Cav1.2 L-type Ca channels (Oryctolagus cuniculus, UniProt P15381); assay: FLIPR Fluo-8 calcium assay, Cav1.2 channel inhibition in HEK293 cells; details: IC50 (μM) Cav1.2, Table 4; 12 concentration points (0.1 nM~100 μM) in duplicate
property: IC50 (µM)

>>> print(df.to_string())
                                   compound  property  reported
0  Cc1cccc(CCN2C(=O)CC(=O)N(C3CCCCC3)C2=O)c1      IC50      77.1
1  O=C1CC(=O)N(C2CCCCC2)C(=O)N1CCc1cccc(Br)c1      IC50      45.8
2   O=C1CC(=O)N(C2CCCC2)C(=O)N1CCCCc1ccccc1      IC50      43.8
3  O=C1CC(=O)N(C2CCCC2)C(=O)N1CCc1cccc(C(F)(F)F)c1      IC50       326
4  O=C1CC(=O)N(C2CCCC2)C(=O)N1CCc1cccc(Cl)c1      IC50      1730
5  O=C1CC(=O)N([C@@H]2C[C@@H]3CC[C@H]2C3)C(=O)N1CCc1cccc(Cl)c1 (racemic)      IC50      20.1
6  O=C1CC(=O)N(C2CC3CCC2C3)C(=O)N1CCc1ccc(Cl)cc1 (racemic)      IC50      13.5
7  O=C1CC(=O)N(C2CCCCC2)C(=O)N1CCc1ccc(Cl)cc1      IC50      38.8
8  O=C1CC(=O)N(C2CCCCC2)C(=O)N1CCc1cccc(Cl)c1      IC50      53.1
9  O=C1CC(=O)N(C2CCCCC2)C(=O)N1CCc1cccc(C(F)(F)F)c1      IC50      25.8

---

target: Cav1.3 L-type Ca channels (Rattus norvegicus, UniProt P27732); construct: expressed in transfected cells; host or cells: HEK293; test: FLIPR Fluo-8 calcium assay, Cav1.3 channel inhibition in HEK293 cells; format: cell-based; details: first library; ratio of IC50 Cav1.2 to Cav1.3
property: Selectivity

>>> df
                                    compound                        measurement_target  reported
 0  O=C1CC(=O)N(C2Cc3ccccc3C2)C(=O)N1CCCCc1ccccc1 [Compound 51]  Cav1.3 L-type Ca channels (Rattus norvegicus, UniProt P27732)       1.5
 1  Cc1ccc(CCN2C(=O)CC(=O)N(CCc3ccc(Cl)cc3)C2=O)cc1 [Compound 17]  Cav1.3 L-type Ca channels (Rattus norvegicus, UniProt P27732)       6.7
 2  O=C1CC(=O)N(Cc2cccc([N+](=O)[O-])c2)C(=O)N1CCc1ccc2ccccc2c1 [Compound 65]  Cav1.3 L-type Ca channels (Rattus norvegicus, UniProt P27732)       1.0
 3  O=C1CC(=O)N(C2CCCCC2)C(=O)N1CCc1ccc(Cl)cc1 [Compound 1]  Cav1.3 L-type Ca channels (Rattus norvegicus, UniProt P27732)      35.1
 4  O=C1CC(=O)N(CCc2cccc([N+](=O)[O-])c2)C(=O)N1CCc1ccc(Cl)cc1 [Compound 24]  Cav1.3 L-type Ca channels (Rattus norvegicus, UniProt P27732)       1.0
 5  O=C1CC(=O)N(C2CCCCC2)C(=O)N1CCc1ccc(F)cc1 [Compound 68]  Cav1.3 L-type Ca channels (Rattus norvegicus, UniProt P27732)      17.7
 6  O=C1CC(=O)N(CCc2ccc(Cl)c(Cl)c2)C(=O)N1CCc1ccc(Cl)cc1 [Compound 14]  Cav1.3 L-type Ca channels (Rattus norvegicus, UniProt P27732)       0.7
 7  O=C1CC(=O)N(CCc2cccc([N+](=O)[O-])c2)C(=O)N1CCCCc1ccccc1 [Compound 47]  Cav1.3 L-type Ca channels (Rattus norvegicus, UniProt P27732)       1.0
 8  O=C1CC(=O)N(C2CCCC2)C(=O)N1CCc1ccc(Cl)cc1 [Compound 29]  Cav1.3 L-type Ca channels (Rattus norvegicus, UniProt P27732)      16.4
 9  O=C1CC(=O)N(C2CCCc3ccccc32)C(=O)N1CCCCc1ccccc1 (stereo not drawn) [Compound 50]  Cav1.3 L-type Ca channels (Rattus norvegicus, UniProt P27732)       0.9
10  O=C1CC(=O)N(Cc2ccc(Cl)cc2)C(=O)N1CCCCc1ccccc1 [Compound 48]  Cav1.3 L-type Ca channels (Rattus norvegicus, UniProt P27732)       3.7
11  O=C1CC(=O)N(Cc2ccc(Cl)cc2)C(=O)N1CCc1ccc(Cl)cc1 [Compound 25]  Cav1.3 L-type Ca channels (Rattus norvegicus, UniProt P27732)       0.9
12  O=C1CC(=O)N(CCCc2ccccc2)C(=O)N1CCCCc1ccccc1 [Compound 49]  Cav1.3 L-type Ca channels (Rattus norvegicus, UniProt P27732)       2.0
13  O=C1CC(=O)N(CCc2ccc(Cl)cc2)C(=O)N1CCCc1ccccc1 [Compound 27]  Cav1.3 L-type Ca channels (Rattus norvegicus, UniProt P27732)       1.9
14  O=C1CC(=O)N(Cc2ccc(Cl)cc2)C(=O)N1CCCc1ccccc1 [Compound 59]  Cav1.3 L-type Ca channels (Rattus norvegicus, UniProt P27732)       1.2
15  O=C1CC(=O)N(CCc2cccc([N+](=O)[O-])c2)C(=O)N1CCCc1ccccc1 [Compound 58]  Cav1.3 L-type Ca channels (Rattus norvegicus, UniProt P27732)       0.9
16  O=C1CC(=O)N(CCc2ccc(F)cc2)C(=O)N1CCCc1ccccc1 [Compound 55]  Cav1.3 L-type Ca channels (Rattus norvegicus, UniProt P27732)       1.7
17  CC(CN1C(=O)CC(=O)N(CCCCc2ccccc2)C1=O)c1ccccc1 (stereo not drawn) [Compound 44]  Cav1.3 L-type Ca channels (Rattus norvegicus, UniProt P27732)       7.7
